System: A549 (human lung adenocarcinoma cells)
Test: CCK-8 cytotoxicity assay, A549
Type: cell-based
Conditions: A549, 48 h, read-out: Cytotoxicity IC50 Lung A549
Protocol: The cytotoxicity of the newly synthesized quinolinylphosphonates 7 was evaluated in vitro by testing their antiproliferative activities against several human cancer cell lines: A549 (human lung adenocarcinoma cells), SKOV3 (human ovarian carcinoma), and HEK293 (human embryonic kidney). In order to analyze the selective cytotoxicity facing exclusively cancerous cell lines, cytotoxicity against non-cancerous cell lines (MRC-5, lung fibroblast cells) was also evaluated. […]
Would you mind telling me the reported pIC50 of each entry?
Give only the number. pIC50 is defined as minus log10 of concentration in molar units.

Item CCOP(=O)(OCC)c1cccc2c(-c3ccc(C)cc3)cc(-c3ccc(F)c(F)c3)nc12 with A549 (human lung adenocarcinoma cells) - pIC50?
5.57

Another compound to check: CC(C)OP(=O)(OC(C)C)c1cccc2c(-c3ccc(F)cc3)cc(-c3ccc(F)cc3)nc12
4.98

Another compound to check: CCOP(=O)(OCC)c1cccc2c(-c3ccc(F)cc3)cc(-c3ccc(F)cc3)nc12
5.51
